Data provenance: paper PMC10683025

- Tested on: NCI-H3255 (EGFR mutation = L858R)
- experimentalDetails: CellTiter-Glo cell viability assay
- Assay type: cell-based, human
- conditions: 72 h, unadjusted for FBS
pIC50: −log10 of the molar value.
outcomeMeasure: pIC50

>>> result("N.N.[Cl][Pt][Cl] [Cisplatin, reference compound]")
"< 5.00"

---

- experimentalDetails: Plasma protein binding by equilibrium dialysis
- Type: in vitro ADME
- conditions: plasma; human, 5 μM; read-out: fu,plasma% / %Unbound
outcomeMeasure: fraction unbound at 6 h, 5 µM

>>> result("COc1cc2ncnc(Nc3cccc(Cl)c3F)c2cc1OCCON1CCN(C)CC1")
0.044

---

- target: CYP2D6 (Homo sapiens)
- experimentalDetails: CYP2D6 time-dependent inhibition in primary human hepatocytes
- conditions: CYP2D6 IC50, human hepatocytes, pre-incubation 30 min
pIC50: −log10 of the molar value.
outcomeMeasure: pIC50

>>> result("COc1cc2ncnc(Nc3cccc(Cl)c3F)c2cc1OCCON1CCN(C)CC1 [Compound 9]")
5.32

---

- experimentalDetails: Pharmacokinetic study
- Assay type: in vivo, BALB/c nude mice
- conditions: female, BALB/c nude, plasma; Mouse 30 mg/kg (PO)
outcomeMeasure: half-life at 24 h (h)

>>> result("COc1cc2ncnc(Nc3cccc(Cl)c3F)c2cc1OCCON1CCN(C)CC1 [Compound 9]")
1.84

---

Reported Remaining Percentages values are given for each entry in this list.
- experimentalDetails: Plasma stability
- Assay type: in vitro ADME, Sprague-Dawley rat
- conditions: rat plasma, 120 min
outcomeMeasure: Remaining Percentages (%)

>>> result("COc1cc2ncnc(Nc3ccc(F)c(Cl)c3)c2cc1OCCCN1CCOCC1 [Gefitinib (1), Gefitinib, reference compound]")
93.66
>>> result("CC[C@H](C)C(=O)O[C@H]1C[C@@H](C)C=C2C=C[C@H](C)[C@H](CC[C@@H]3C[C@@H](O)CC(=O)O3)[C@H]21 [Mevinolin, reference compound]")
0.27
>>> result("COc1cc2ncnc(Nc3cccc(Cl)c3F)c2cc1OCCON1CCOCC1")
95.67
>>> result("COc1cc2ncnc(Nc3cccc(Cl)c3F)c2cc1OCCON1CCN(C)CC1")
96.60
>>> result("COc1cc2ncnc(Nc3ccc(F)c(Cl)c3)c2cc1OCCON1CCOCC1")
104.21

---

- experimentalDetails: Metabolic stability in liver microsomes
- Type: in vitro ADME, Sprague-Dawley rat
- conditions: rat LM, +Cofactors, 60 min
Criterion: Remaining Percentage meeting or surpassing 10%. Met: MET. Not met: NOT MET.

>>> qualitativelabel("COc1cc2ncnc(Nc3cccc(Cl)c3F)c2cc1OCCON1CCN(C)CC1")
"NOT MET"
>>> qualitativelabel("COc1cc2ncnc(Nc3cccc(Cl)c3F)c2cc1OCCON1CCOCC1")
"NOT MET"
>>> qualitativelabel("COc1cc2ncnc(Nc3ccc(F)c(Cl)c3)c2cc1OCCON1CCN(C)CC1")
"MET"
>>> qualitativelabel("COc1cc2ncnc(Nc3ccc(F)c(Cl)c3)c2cc1OCCCN1CCOCC1 [Gefitinib (1), Gefitinib, reference compound]")
"MET"
>>> qualitativelabel("COc1cc2ncnc(Nc3ccc(F)c(Cl)c3)c2cc1OCCON1CCOCC1")
"MET"

---

- target: CYP2D6 (Homo sapiens, UniProt P10635)
- Sequence (P10635 whole entry): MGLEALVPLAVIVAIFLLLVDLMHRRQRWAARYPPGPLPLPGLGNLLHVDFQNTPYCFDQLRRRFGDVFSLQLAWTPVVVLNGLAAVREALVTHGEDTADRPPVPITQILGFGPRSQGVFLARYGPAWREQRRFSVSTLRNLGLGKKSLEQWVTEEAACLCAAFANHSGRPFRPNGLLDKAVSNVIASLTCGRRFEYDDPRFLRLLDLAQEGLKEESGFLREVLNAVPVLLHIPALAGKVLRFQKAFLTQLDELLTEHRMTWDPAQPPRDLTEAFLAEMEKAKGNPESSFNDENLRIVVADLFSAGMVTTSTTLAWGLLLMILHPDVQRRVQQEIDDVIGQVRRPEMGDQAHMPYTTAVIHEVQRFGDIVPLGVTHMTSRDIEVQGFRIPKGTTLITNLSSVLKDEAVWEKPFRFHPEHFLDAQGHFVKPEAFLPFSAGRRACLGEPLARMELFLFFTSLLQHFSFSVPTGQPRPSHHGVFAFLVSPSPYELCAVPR
- experimentalDetails: CYP2D6 time-dependent inhibition in human liver microsomes
- conditions: read-out: CYP2D6 IC50; liver microsomes, 30 min with NADPH
outcomeMeasure: IC50 (nM)

>>> result("COc1cc2ncnc(Nc3cccc(Cl)c3F)c2cc1OCCON1CCN(C)CC1")
1820
